Biological target: Mannose-6-phosphate isomerase (Homo sapiens) (UniProt P34949)
Sequence (P34949 whole entry, looked up): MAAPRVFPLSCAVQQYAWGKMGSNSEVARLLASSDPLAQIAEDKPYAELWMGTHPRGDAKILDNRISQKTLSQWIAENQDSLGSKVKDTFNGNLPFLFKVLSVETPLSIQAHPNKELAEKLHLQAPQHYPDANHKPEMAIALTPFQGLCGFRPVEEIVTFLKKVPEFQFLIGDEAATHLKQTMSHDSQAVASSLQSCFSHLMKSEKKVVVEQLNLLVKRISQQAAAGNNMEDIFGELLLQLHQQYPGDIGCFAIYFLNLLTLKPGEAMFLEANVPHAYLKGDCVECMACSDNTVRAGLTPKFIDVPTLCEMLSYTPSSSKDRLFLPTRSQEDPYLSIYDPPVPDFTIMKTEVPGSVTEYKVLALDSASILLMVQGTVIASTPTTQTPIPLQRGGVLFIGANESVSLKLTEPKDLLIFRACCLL
Assay: inhibitors of human PMI, primary screen, biochemical, fluorescence intensity, coupled assay (AID 1209);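 note: plate controls were DMSO vehicle for no effect and wells lacking substrate for full effect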
Details: purified PMI enzyme, at 20 µM, active compounds read high
In all, about 190,000 compounds went through this assay and about 810 (0.43%) were called active. The sample holds actives, similar compounds and a random draw of the others, so the mix is not that of the screen.
outcomeMeasure: inhibition (%)
Lab book: enter the figure in %, no units written.

Solved entries:
Incoming: Tell me its inhibition given COc1ccc2nc(NNC(=O)C3COc4ccccc4O3)sc2c1 (stereo not given) as the entry.
Outgoing: -43.9

Incoming: Look up inhibition of Cc1ccc(-n2c(O)c(C=NC3CCS(=O)(=O)C3)c3ccccc3c2=O)cc1 (stereo not given) and report it.
Outgoing: 5.7

Incoming: Give a short answer stating reported inhibition for O=C(C1CC1)N1N=C(C2CCCCC2)CC1(O)C(F)(F)F (stereo not given) .
Outgoing: 6.9

Incoming: Provide inhibition value for the following compound: O=C(O)CNC(=O)CC1S/C(=N/N=C2/NC(=O)CS2)NC1=O (stereo not given)
Outgoing: 25.1

Incoming: Consider the compound "CCOC(=O)c1c(C)oc2c1c(C=NCc1ccccn1)c(O)c1ccccc12" . State its measured inhibition.
Outgoing: 62.5

Incoming: Tell me measured inhibition for "Fc1ccc(C2=Nn3c(Cc4ccccc4)nnc3SC2)cc1" please.
Outgoing: 11.2

Incoming: Tell us which inhibition value is on record for "CC(C)(C)NC(=O)c1cc(-c2ccccc2)n[nH]1"
Outgoing: 70.1

Incoming: Check the records and state inhibition for CCOC(=O)c1c(C)oc2c1c(C=NCC1CCCO1)c(O)c1ccccc12 (stereo not given)
Outgoing: 63.6

Now turn to the next compound.
Incoming: For the compound "Cc1ccc(S(=O)(=O)N2CCC(C(=O)N[C@H](C(=O)NCc3ccco3)C(C)C)CC2)cc1" , give its measured inhibition value.
Outgoing: -3.1
